measuredTarget: SF-1 (Homo sapiens, UniProt Q13285)
Construct: NCI-H295R SF-1-HiBiT cells with HiBiT tag knocked in at the endogenous SF1 locus; host or cells: NCI-H295R SF-1-HiBiT (knock-in at endogenous locus)
protocolNotes: SF1 degradation induction in NCI-H295R SF-1-HiBiT cells (HiBiT DC50)
Assay type: cell-based
measurementSetup: 24 hr, concentration that induces 50% degradation of SF-1
Below, each entry is listed alongside its reported DC50.
Give just the numeric value; nM need not be written.

Prompt: I would be grateful if you could share the reported DC50 for COc1ccc([C@]2(CCN(Cc3cc(F)c(C4=CCC(C(=O)N5CCN(Cc6ccc7c(c6)n(C)c(=O)n7C6CCC(=O)NC6=O)CC5)CC4)c(F)c3)CC(C)(C)C(F)(F)F)CCOC(C)(C)C2)cc1 (some centres unmarked) .
Response: 9.3

Prompt: I would be grateful if you could share the reported DC50 for COc1ccc([C@]2(CCN(Cc3ccc(C4=C(F)CC(C(=O)N5CCN(Cc6ccc7c8c6CCCn8c(=O)n7C6CCC(=O)NC6=O)CC5)CC4)cc3)CC(C)(C)C(F)(F)F)CCOC(C)(C)C2)cc1 (some centres unmarked) .
Response: 9

Prompt: I would be grateful if you could share the reported DC50 for COc1ccc([C@]2(CCN(Cc3ccc(C4=CC[C@H](CN5CCN(C(=O)c6ccc7c(c6)n(C)c(=O)n7C6CCC(=O)NC6=O)CC5)CC4)cc3)CC(C)(C)C(F)(F)F)CCOC(C)(C)C2)cc1 (some centres unmarked) .
Response: 11

Prompt: I would be grateful if you could share the reported DC50 for COc1ccc([C@]2(CCN(Cc3ccc(C4=CC[C@H](C(=O)N5CC(Nc6ccc7c8c6CCCn8c(=O)n7C6CCC(=O)NC6=O)C5)CC4)c(F)c3)CC(C)(C)C(F)(F)F)CCOC(C)(C)C2)cc1 (some centres unmarked) .
Response: 9.1

====

Below, each entry is listed alongside its reported log10 DC50.
measuredTarget: SF-1 (Homo sapiens)
Construct: NCI-H295R SF-1-HiBiT cells with HiBiT tag knocked in at the endogenous SF1 locus; host or cells: NCI-H295R SF-1-HiBiT (knock-in at endogenous locus)
protocolNotes: SF1 degradation induction in NCI-H295R SF-1-HiBiT cells (HiBiT DC50)
Type: cell-based
measurementSetup: 24 hr, concentration that induces 50% degradation of SF-1
Values below are the log10 of the recorded DC50, with nM as the unit.

{"molecule": "COc1ccc(C2(CCN(Cc3ccc(OC4CCN(CC(=O)Nc5cccc6c5n(C)c(=O)n6C5CCC(=O)NC5=O)CC4)cc3)CC(C)(C)C(F)(F)F)CCOCC2)cc1 (stereo not shown)", "quantitativeResult": 1.41}
{"molecule": "COc1ccc([C@]2(CCN(Cc3ccc(C4=CCC(C(=O)N[C@H]5C[C@H](Nc6ccc7c(c6)n(C)c(=O)n7C6CCC(=O)NC6=O)C5)CC4)cc3)CC(C)(C)C(F)(F)F)CCOC(C)(C)C2)cc1 (stereo partly shown)", "quantitativeResult": 0.86}
{"molecule": "COc1ccc([C@]2(CCN(Cc3ccc(C4=CC[C@H](C(=O)N5CCN(Cc6ccc7c(c6)n(C)c(=O)n7C6CCC(=O)NC6=O)CC5)CC4)c(F)c3)CC(C)(C)C(F)(F)F)CCOC(C)(C)C2)cc1 (stereo partly shown)", "quantitativeResult": 0.65}
{"molecule": "COc1ccc([C@]2(CCN(Cc3ccc4nn(C5CC6(CCN(CC(=O)Nc7ccc8c(c7)n(C)c(=O)n8C7CCC(=O)NC7=O)CC6)C5)cc4c3)CC(C)(C)C(F)(F)F)CCOC(C)(C)C2)cc1 (stereo partly shown)", "quantitativeResult": 0.85}
{"molecule": "COc1ccc([C@]2(CCN(Cc3ccc(C4=CCC(CC(=O)NCCNc5ccc6c(c5)n(C)c(=O)n6C5CCC(=O)NC5=O)CC4)cc3)CC(C)(C)C(F)(F)F)CCOC(C)(C)C2)cc1 (stereo partly shown)", "quantitativeResult": 1.08}
{"molecule": "COc1ccc([C@]2(CCN(Cc3ccc(C4=CCC(CN5CCN(C(=O)c6ccc7c(n6)n(C)c(=O)n7C6CCC(=O)NC6=O)CC5)CC4)cc3)CC(C)(C)C(F)(F)F)CCOC(C)(C)C2)cc1 (stereo partly shown)", "quantitativeResult": 0.79}
{"molecule": "COc1ccc([C@]2(CCN(Cc3ccc(C4=CC[C@H](C(=O)N5CCC(Nc6cc7c(cc6F)n(C6CCC(=O)NC6=O)c(=O)n7C)CC5)CC4)cc3)CC(C)(C)C(F)(F)F)CCOC(C)(C)C2)cc1 (stereo partly shown)", "quantitativeResult": 0.54}
{"molecule": "COc1ccc([C@]2(CCN(Cc3ccc([C@H]4CC[C@@H](CN5CCN(C(=O)c6ccc7c(c6)n(C)c(=O)n7C6CCC(=O)NC6=O)CC5)CC4)cc3)CC(C)(C)C(F)(F)F)CCOC(C)(C)C2)cc1 (stereo partly shown)", "quantitativeResult": 0.79}

Prompt: # query: log10 DC50 | item COc1ccc([C@]2(CCN(Cc3ccc(C4=CC[C@H](C(=O)N5CCN(Cc6ccc7c8c6CN(C)CCn8c(=O)n7C6CCC(=O)NC6=O)CC5)CC4)c(F)c3)CC(C)(C)C(F)(F)F)CCOC(C)(C)C2)cc1 (stereo partly shown) | system: SF-1 (Homo sapiens)
Response: 1.11

Prompt: # query: log10 DC50 | item COc1ccc([C@]2(CCN(Cc3ccc(C4=CC[C@H](C(=O)N5CCC(Nc6ccc7c8c6CCCn8c(=O)n7C6CCC(=O)NC6=O)CC5)CC4)c(F)c3)CC(C)(C)C(F)(F)F)CCOC(C)(C)C2)cc1 (single isomer, unassigned) [CG1] | system: SF-1 (Homo sapiens)
Response: 0.26
